# Measurement Protocol: stimulators of nuclear beta-catenin in C2C12, primary screen, imaging, WNT3A-conditioned medium, mouse C2C12, NPC library (AID 1117326); also: reference of the scale not given here
# Setup Conditions: at 10 µM, stronger effect = higher value
Endpoint: nuclear beta-catenin stimulation (%)
One number for each entry, in %.

Sample answers from the record:
- Compound: "NC(=O)C[C@H](N)C(=O)O"
  Endpoint: "nuclear beta-catenin stimulation"
  Reported: 3
- Compound: "C=CCN1CCc2nc(N)sc2CC1"
  Endpoint: "nuclear beta-catenin stimulation"
  Reported: 0.7
- Compound: "CC(=O)Nc1ccc(OCCOCCOc2ccc(NC(C)=O)cc2)cc1"
  Endpoint: "nuclear beta-catenin stimulation"
  Reported: 0.3
- Compound: "Cc1cccc(Nc2ccccc2C(=O)O)c1C"
  Endpoint: "nuclear beta-catenin stimulation"
  Reported: 0.8
- Compound: "C=CCNc1nc(NCC=C)nc(N2CCN(C(c3ccc(F)cc3)c3ccc(F)cc3)CC2)n1"
  Endpoint: "nuclear beta-catenin stimulation"
  Reported: 0.3

Please look at the items below and tell me nuclear beta-catenin stimulation for each one, in order.
1. CCCc1nc2c(C)cc(-c3nc4ccccc4n3C)cc2n1Cc1ccc(-c2ccccc2C(=O)O)cc1
2. CNC(=O)CN(CCN(CCN(CC(=O)[O-])CC(=O)NC)CC(=O)[O-])CC(=O)[O-].O.[Gd+3]
3. FC1(F)C(F)(F)C(F)(F)C2(F)C(F)(F)C(F)(F)C(F)(F)C(F)(F)C2(F)C1(F)F (stereo unspecified)
4. Nc1nc2ccccc2n1Cc1ccc(F)cc1
5. Nc1ccc(C(=O)OCC(O)CO)cc1 (stereo unspecified)
6. c1ccc(-c2nc[nH]c2-c2ccccc2)cc1

Result:
1: 3.7; 2: 1.4; 3: -0.7; 4: 0.8; 5: 3.1; 6: 0.2

###

# Measurement Protocol: IRF3 reporter activation in THP-1 macrophages, cell-based, PMA-stimulated THP-1, luminescence (AID 1053176)
# Setup Conditions: PMA-differentiated THP-1, IRF3 reporter luminescence; stronger effect = higher value
Endpoint: fraction signal
Answers are plain numbers.

Please look at the items below and tell me fraction signal for each one, in order.
1. COc1ccc2c(c1)C(c1ccccc1Cl)=Nc1c(n[nH]c1C)N2
2. COc1ccc(-c2ccncc2)cc1C(N)=O
3. COc1ccc(O)c(C(=O)c2ccc(C(=O)O[C@H]3CCCNC[C@@H]3NC(=O)c3ccncc3)cc2)c1F
4. Fc1ccc(-c2nn3ccccc3c2-c2ccncc2)cc1
5. Nc1nccc(-c2c(-c3ccc(F)cc3)ncn2C2CCC(O)CC2)n1 (configuration not stated)
6. Nc1c(C(=O)c2cccc(CCC3(O)CCCC3)c2)cnn1-c1ccc(F)cc1

Result:
0.0035
-0.004
0.001
0.0045
-0.0025
-0.0005

###

# Measurement Protocol: enhancers of glutamate uptake in motor neurons, MN-1 cell line (AID 1612);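 also: tested at 1 µM final; 0% = mean of DMSO vehicle wells on each plate; positive means more glutamate uptake than control and negative means less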
# Setup Conditions: MN-1 motor neuron cells, stronger effect = higher value
Exercise: for every item that follows, state its recorded glutamate uptake change.
Answers are plain numbers, in %.

Sample answers from the record:
- Molecule: "O=C(c1ccccc1)c1ccc2n1CCC2C(=O)O (stereo unspecified)"
  Reported: 14.7
- Molecule: "CCN(CC)CCCC(C)Nc1c2ccc(Cl)cc2nc2ccc(OC)cc12 (stereo unspecified)"
  Reported: 2.03
- Molecule: "CCc1cc(C(N)=S)ccn1"
  Reported: 15.8
- Molecule: "COC1=CC(=O)C[C@@H](C)[C@]12Oc1c(Cl)c(OC)cc(OC)c1C2=O"
  Reported: -9
- Molecule: "CC[C@H](C)C(=O)O[C@H]1C[C@@H](C)C=C2C=C[C@H](C)[C@H](CC[C@@H]3C[C@@H](O)CC(=O)O3)[C@H]21"
  Reported: -19
- Molecule: "COc1cc2nc(N3CCN(C(=O)c4ccco4)CC3)nc(N)c2cc1OC"
  Reported: -22.2
- Molecule: "CNC(=O)Oc1ccc2c(c1)[C@]1(C)CCN(C)[C@@H]1N2C"
  Reported: -18.2
- Molecule: "CCN(Cc1ccncc1)C(=O)C(CO)c1ccccc1 (stereo unspecified)"
  Reported: -2.09

Please look at the items below and tell me glutamate uptake change for each one, in order.
1. CCOC(=O)[C@H](CCc1ccccc1)N[C@@H](C)C(=O)N1Cc2ccccc2C[C@H]1C(=O)O
2. CN(C)CCC=C1c2ccccc2CCc2ccccc21
3. Cc1ccccc1C(OCCN(C)C)c1ccccc1 (stereo unspecified)

Result:
1: 3.41; 2: -1.53; 3: 36.2
